Assay: Binding affinity to Naegleria fowleri CYP51 expressed in Escherichia coli HMS-174 (DE3) assessed as dissociation constant by quadratic Morrison equation
PROPERTY NAME: Kd (nM)
Field: numeric (nM). Do not append units.

QUERY: Tell me the measured Kd of CC(=O)N1CCN(c2ccc(OCC3COC(Cn4ccnc4)(c4ccc(Cl)cc4Cl)O3)cc2)CC1 (configuration not stated) [KETOCONAZOLE] , please.
RESULT: 5

QUERY: What value of measured Kd is listed for `O=C(N[C@@H](Cn1ccnc1)c1ccc(Cl)cc1Cl)c1ccc(-c2nnc(-c3ccc(F)c(F)c3)o2)cc1` ?
RESULT: 3

QUERY: Any idea what Kd was measured for `O=C(N[C@@H](Cn1ccnc1)c1ccc(-c2ccc(F)cc2)cc1F)c1ccc(-c2nnc(-c3ccccc3)o2)cc1` ?
RESULT: 10

QUERY: Give its Kd value. Item: `O=C(N[C@@H](Cn1ccnc1)c1ccc(-c2ccc(F)cc2)cc1Cl)c1ccc(-c2nnc(-c3ccccc3)o2)cc1`
RESULT: 25

QUERY: Need Kd of `O=C(N[C@@H](Cn1ccnc1)c1c(F)cc(-c2ccc(F)cc2)cc1F)c1ccc(-c2nnc(-c3ccccc3)o2)cc1` , thanks.
RESULT: 7

QUERY: What value of measured Kd is listed for `O=C(N[C@@H](Cn1ccnc1)c1ccc(Cl)cc1Cl)c1ccc(-c2nnc(-c3ccc(C(F)(F)F)c(F)c3)o2)cc1` ?
RESULT: 11

QUERY: Tell me the measured Kd of `O=C(N[C@@H](Cn1ccnc1)c1ccc(Cl)cc1Cl)c1ccc(-c2nnc(-c3ccccc3)o2)cc1` , please.
RESULT: 5

====

Assay: Inhibition of Naegleria fowleri CYP51 catalytic activity using [3-3H]sterol substrate measured after 1 hr by RP-HPLC analysis
PROPERTY NAME: IC50
Lab note: write values as number then unit, every time.

QUERY: Please look up its IC50: C[C@@H](c1nc(-c2ccc(C#N)cc2)cs1)C(O)(Cn1cncn1)c1cc(F)ccc1F (stereo not given in full)
RESULT: 900 nM

QUERY: Quick one: IC50 for `CC[C@@H]([C@H](C)O)n1ncn(-c2ccc(N3CCN(c4ccc(OC[C@@H]5CO[C@@](Cn6cncn6)(c6ccc(F)cc6F)C5)cc4)CC3)cc2)c1=O` ?
RESULT: 690 nM

QUERY: Can you share its IC50? I mean this compound: `C[C@@H](c1ncncc1F)[C@](O)(Cn1cncn1)c1ccc(F)cc1F`
RESULT: 3220 nM

QUERY: Param item = CCC(C)n1ncn(-c2ccc(N3CCN(c4ccc(OCC5COC(Cn6cncn6)(c6ccc(Cl)cc6Cl)O5)cc4)CC3)cc2)c1=O (stereo not given) ; retrieve measured IC50.
RESULT: 2050 nM

QUERY: Would you mind telling me what IC50 value was observed for `O=C(N[C@@H](Cn1ccnc1)c1ccc(-c2ccc(F)cc2)cc1Cl)c1ccc(-c2nnc(-c3ccccc3)o2)cc1` ?
RESULT: 680 nM
